Test system: NCI-H322M multicellular tumor spheroids, viability (% test/control)
protocol_description: Anticancer human tumor NCI-H322M cell line growth inhibition;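 further: spheroids exposed to compound for seven days before readout; 100% = DMSO vehicle control wells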
condition_info: second compound 0.0949 µM; first compound 10 µM; hits give low values
attribute_measured: viability, T/C

The recorded viability, T/C for CC(C)n1c(=O)n(C)c2cnc3cc(F)c(-c4ccc(OCCCN5CCCCC5)nc4)cc3c21 + CC[C@@]1(O)C(=O)OCc2c1cc1n(c2=O)Cc2cc3c(CN(C)C)c(O)ccc3nc2-1 is 68.6%

compound Cc1cc(C)c(CNC(=O)c2cc(-c3ccc(CN4CCOCC4)cc3)cc3c2cnn3C2CCCC2)c(=O)[nH]1 + CC[C@@]1(O)C(=O)OCc2c1cc1n(c2=O)Cc2cc3c(CN(C)C)c(O)ccc3nc2-1 , viability, T/C observed: 82.2%

// viability, T/C value for CC1COCCN1c1cc(-c2ccnn2C)c2ccnc(-c3ccn[nH]3)c2n1 (stereo not drawn) + CC[C@@]1(O)C(=O)OCc2c1cc1n(c2=O)Cc2cc3c(CN(C)C)c(O)ccc3nc2-1 : 29.9%

###

Exercise: state measured viability, T/C for each of the compounds provided.
Test system: NCI-H322M multicellular tumor spheroids, viability (% test/control)
protocol_description: Anticancer human tumor NCI-H322M cell line growth inhibition;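 further: spheroids exposed to compound for seven days before readout; 100% = DMSO vehicle control wells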
condition_info: second compound 94.9 pM; first compound 0.0949 µM; hits give low values
Give the value in % but do not write % after it.

So, Cc1sc2c(c1C)C(c1ccc(Cl)cc1)=NC(CC(=O)Nc1ccc(O)cc1)c1nnc(C)n1-2 (centres undefined) + COc1cc2c(cc1O)CCNC21CSC2c3c(OC(C)=O)c(C)c4c(c3C(COC1=O)N1C(O)C3Cc5cc(C)c(OC)c(O)c5C(C21)N3C)OCO4 ? Its viability, T/C was 123

Sure, the documented viability, T/C for Cn1ncnc1[C@H]1c2n[nH]c(=O)c3cc(F)cc(c23)N[C@@H]1c1ccc(F)cc1 + COc1cc2c(cc1O)CCNC21CSC2c3c(OC(C)=O)c(C)c4c(c3C(COC1=O)N1C(O)C3Cc5cc(C)c(OC)c(O)c5C(C21)N3C)OCO4 is 78.8

Input O=C(c1cc(Cc2n[nH]c(=O)c3ccccc23)ccc1F)N1CCN(C(=O)C2CC2)CC1 + COc1cc2c(cc1O)CCNC21CSC2c3c(OC(C)=O)c(C)c4c(c3C(COC1=O)N1C(O)C3Cc5cc(C)c(OC)c(O)c5C(C21)N3C)OCO4 . Output viability, T/C: 90.7

CNCc1ccc(-c2cc(-c3nc(-c4ccc(S(=O)(=O)C(C)C)cc4)cnc3N)on2)cc1 + COc1cc2c(cc1O)CCNC21CSC2c3c(OC(C)=O)c(C)c4c(c3C(COC1=O)N1C(O)C3Cc5cc(C)c(OC)c(O)c5C(C21)N3C)OCO4 has a reported viability, T/C of 85.6

###

Test system: NCI-H322M multicellular tumor spheroids, viability (% test/control)
protocol_description: Anticancer human tumor NCI-H322M cell line growth inhibition;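 further: spheroids exposed to compound for seven days before readout; 100% = DMSO vehicle control wells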
condition_info: second compound 94.9 pM; first compound 0.0316 µM; hits give low values
We label by threshold. Values of viability, T/C strictly beneath 80% are met. Values of 80% and up are not met.

Challenge: # strict comparison: is reported viability, T/C < 80%? input = CC1COCCN1c1cc(-c2ccnn2C)c2ccnc(-c3ccn[nH]3)c2n1 (stereo unspecified) + COc1cc2c(cc1O)CCNC21CSC2c3c(OC(C)=O)c(C)c4c(c3C(COC1=O)N1C(O)C3Cc5cc(C)c(OC)c(O)c5C(C21)N3C)OCO4
Response given: met

Challenge: Problem: For the compound COc1cc(C)[nH]c(=O)c1CN1CCc2c(Cl)cc(C(OC)C3COC3)c(Cl)c2C1=O (stereo unspecified) + COc1cc2c(cc1O)CCNC21CSC2c3c(OC(C)=O)c(C)c4c(c3C(COC1=O)N1C(O)C3Cc5cc(C)c(OC)c(O)c5C(C21)N3C)OCO4 , is viability, T/C under 80%?
Response given: not met

Challenge: is_below(viability, T/C, 80%) for CC(C)n1c(=O)n(C)c2cnc3cc(F)c(-c4ccc(OCCCN5CCCCC5)nc4)cc3c21 + COc1cc2c(cc1O)CCNC21CSC2c3c(OC(C)=O)c(C)c4c(c3C(COC1=O)N1C(O)C3Cc5cc(C)c(OC)c(O)c5C(C21)N3C)OCO4 ?
Response given: met

Challenge: Strictly below 80%: is that where viability, T/C of COc1ccc([C@@H](O)c2cc(-c3ncnc4cc(N5CCOCC5)ccc34)c(F)cc2Cl)nn1 + COc1cc2c(cc1O)CCNC21CSC2c3c(OC(C)=O)c(C)c4c(c3C(COC1=O)N1C(O)C3Cc5cc(C)c(OC)c(O)c5C(C21)N3C)OCO4 sits?
Response given: not met

Challenge: # check: viability, T/C < 80% for Cc1cc(C)c(CNC(=O)c2cc(-c3ccc(CN4CCOCC4)cc3)cc3c2cnn3C2CCCC2)c(=O)[nH]1 + COc1cc2c(cc1O)CCNC21CSC2c3c(OC(C)=O)c(C)c4c(c3C(COC1=O)N1C(O)C3Cc5cc(C)c(OC)c(O)c5C(C21)N3C)OCO4
Response given: not met
